Attribution: the supplement of paper PMC7411640

# Test system: MDA-MB-468
# procedure details: phospho-S6 immunofluorescence (DAPI-normalised), per-plate z-score; higher = higher phospho-S6 signal (less pathway suppression)
# conditions: co-treatment: vehicle; 24 h
Where a name gives a salt, the structure may show the parent alone.
Assign TRUE whenever phospho-S6 immunofluorescence (z-score) does not fall below -0.7; assign FALSE whenever it does.

Is the recorded value of phospho-S6 immunofluorescence (z-score) equal to or greater than -0.7 for this compound? O=C(C[S+]([O-])C(c1ccccc1)c1ccccc1)NO (centres undefined) [Adrafinil] (compound 10 µM)
TRUE

Confirm if phospho-S6 immunofluorescence (z-score) reported for the compound CN1C[C@H](C(=O)N[C@]2(C)O[C@@]3(O)[C@@H]4CCCN4C(=O)[C@H](Cc4ccccc4)N3C2=O)C[C@@H]2c3cccc4[nH]cc(c34)C[C@H]21 [Dihydroergotamine (mesylate)] (compound 10 µM) is -0.7 or above.
TRUE

Decide: is the reported value of phospho-S6 immunofluorescence (z-score) for NCCc1cc(O)c(O)cc1O [Oxidopamine (hydrobromide)] (compound 10 µM) equal to or greater than -0.7?
TRUE

Record COc1ccc2c(c1OC)CN1CCc3cc4c(cc3C1C2)OCO4 (centres undefined) [Tetrahydroberberine] (compound 10 µM) ; criterion: phospho-S6 immunofluorescence (z-score) no lower than -0.7. Met?
TRUE

Evaluate CCCC(C)(C)c1ccc2c(c1)OC(C)(C)[C@@H]1CC=C(C)C[C@@H]21 (compound 10 µM) : phospho-S6 immunofluorescence (z-score) at minimum -0.7?
TRUE

Exam item: decide whether the reported phospho-S6 immunofluorescence (z-score) for O=Cc1cn(Cc2ccc(Cl)cc2)c2ccccc12 [Oncrasin-1] (compound 10 µM) is at least -0.7.
FALSE

Determine whether measured phospho-S6 immunofluorescence (z-score) meets or exceeds -0.7 for CN(C)CCN(C)CCc1ccc(Cl)c(Cl)c1 [BD-1047 (dihydrobromide)] (compound 10 µM)
FALSE

Could you verify whether the entry O=C(O[C@H]1CN2CCC1CC2)N(Cc1cc(F)c(F)c(F)c1)c1cccc(F)c1 [Tarafenacin (D-tartrate)] (compound 10 µM) shows phospho-S6 immunofluorescence (z-score) of no less than -0.7?
TRUE

Could you please find out whether Cc1ccc2c(c1)[C@]13CCCC[C@@H]1[C@H](C2)N(C)CC3 [Dimemorfan (phosphate)] (compound 10 µM) has phospho-S6 immunofluorescence (z-score) that meets -0.7 or exceeds it?
TRUE

Decide: is the reported value of phospho-S6 immunofluorescence (z-score) for Cc1cccc(Cc2c[nH]cn2)c1C [Detomidine (hydrochloride)] (compound 10 µM) equal to or greater than -0.7?
TRUE

Is the recorded value of phospho-S6 immunofluorescence (z-score) equal to or greater than -0.7 for this compound? CNC(C)Cc1ccccc1OC (centres undefined) [Methoxyphenamine (Hydrochloride)] (compound 10 µM)
TRUE

Confirm if phospho-S6 immunofluorescence (z-score) reported for the compound C[C@@H]1CN(Cc2ccc(F)cc2)CCN1C(=O)COc1ccc(Cl)cc1NC(N)=O (compound 10 µM) is -0.7 or above.
FALSE

Can C[N@+]1(CC2CC2)CC[C@]23c4c5ccc(O)c4O[C@H]2C(=O)CC[C@@]3(O)[C@H]1C5 [Methylnaltrexone (Bromide)] (compound 10 µM) be said to have phospho-S6 immunofluorescence (z-score) at or above -0.7?
TRUE

Evaluate CN1[C@@H]2C[C@@H](OC(=O)[C@H](CO)c3ccccc3)C[C@H]1[C@@H]1O[C@@H]12 [Scopolamine (hydrobromide)] (compound 10 µM) : phospho-S6 immunofluorescence (z-score) at minimum -0.7?
TRUE

Could you tell me if the measured phospho-S6 immunofluorescence (z-score) of CN1[C@@H]2CC(O)C[C@H]1[C@@H]1O[C@@H]12 (some centres undefined) [Scopine (hydrochloride)] (compound 10 µM) reaches -0.7 or more?
FALSE

Dear colleague, could you confirm whether CN(C)C(=O)Oc1cc(OC(=O)N(C)C)cc(C(O)CNC(C)(C)C)c1 (centres undefined) [Bambuterol (hydrochloride)] (compound 10 µM) has phospho-S6 immunofluorescence (z-score) at or above -0.7?
TRUE

Confirm if phospho-S6 immunofluorescence (z-score) reported for the compound N#Cc1c(Oc2cccc(OS(=O)(=O)CCCC(F)(F)F)c2)cccc1C(F)(F)F (compound 10 µM) is -0.7 or above.
FALSE

Check this compound for phospho-S6 immunofluorescence (z-score) at or above -0.7: O=C1CC[C@@]2(O)[C@H]3Cc4ccc(O)c5c4[C@@]2(CCN3CC2CC2)[C@H]1O5 [Naltrexone (Hydrochloride)] (compound 10 µM)
TRUE

Would you say CN1[C@@H]2CC[C@H]1C[C@@H](OC(=O)C(CO)c1ccccc1)C2 (some centres undefined) [Atropine (sulfate monohydrate)] (compound 10 µM) shows phospho-S6 immunofluorescence (z-score) at minimum -0.7?
FALSE
